Assay type: in vivo, rat
Conditions: single dose 150 µmol kg^−1 SC; tissue 24 h post-metal
Marks after values point to notes of the source that are not given here.
Hi there, I'd appreciate the recorded Lung U Conc. for every entry that follows.

Query: Lung U Conc.; subject: COc1ccc(C2=N[C@@](C)(C(=O)O)CS2)c(O)c1 [compound 7, (S)-4'-(CH3O)-DADFT]
0.28 ± 0.04 ^c µg g^−1

For the 4 compounds below, give their Lung U Conc. values.
1. COc1ccc(C2=N[C@@H](C(=O)O)CS2)c(O)c1
2. COCCOCCOCCOc1cccc(C2=N[C@@](C)(C(=O)O)CS2)c1O
3. O=C(O)CN(CCN(CC(=O)O)CC(=O)O)CCN(CC(=O)O)CC(=O)O [DTPA, Diethylenetriaminepentaacetic acid, reference compound]
4. COCCOCCOCCOc1ccc(C2=N[C@@](C)(C(=O)O)CS2)c(O)c1

1: 0.32 ± 0.09 ^c µg g^−1; 2: 0.09 ± 0.02 ^b µg g^−1; 3: 0.07 ± 0.01 ^b µg g^−1; 4: 0.16 ± 0.13 µg/g

====

Hi there, I'd appreciate the recorded Lung U Conc. for every entry that follows.
Type: in vivo, rat
Conditions: single dose 300 µmol kg^−1 SC; tissue 24 h post-metal
Marks after values point to notes of the source that are not given here.

// worked examples, Lung U Conc. included
Query: Lung U Conc.; subject: COCCOCCOCCOc1cccc(C2=N[C@@](C)(C(=O)O)CS2)c1O
0.08 ± 0.02 ^b µg g^−1

What would you report for COCCOCCOCCOc1ccc(C2=N[C@@](C)(C(=O)O)CS2)c(O)c1 ?
0.13 ± 0.02 µg/g

What would you report for COc1ccc(C2=N[C@@H](C(=O)O)CS2)c(O)c1 ?
0.32 ± 0.02 ^c µg g^−1

# evaluate next
Query: Lung U Conc.; subject: COc1ccc(C2=N[C@@](C)(C(=O)O)CS2)c(O)c1 [compound 7, (S)-4'-(CH3O)-DADFT]
0.61 ± 0.13 ^c µg g^−1

====

Assay type: in vivo, rat
Settings: single dose 300 µmol kg^−1 SC; 24 h post-metal
QUANTITY_KIND: Reduction (%) of renal uranium vs control
One number for each entry, in %.

// worked examples, Reduction (%) of renal uranium vs control included
Query: Reduction (%) of renal uranium vs control; subject: COc1ccc(C2=N[C@@](C)(C(=O)O)CS2)c(O)c1 [compound 7, (S)-4'-(CH3O)-DADFT]
90

What would you report for COCCOCCOCCOc1cccc(C2=N[C@@](C)(C(=O)O)CS2)c1O [compound 10] ?
85

What would you report for COc1ccc(C2=N[C@@H](C(=O)O)CS2)c(O)c1 [compound 3] ?
60

Further cases:
Query: Reduction (%) of renal uranium vs control; subject: COCCOCCOCCOc1ccc(C2=N[C@@](C)(C(=O)O)CS2)c(O)c1 [compound 9]
66

====

Type: in vivo, rat
Settings: single dose 300 µmol kg^−1 SC; kidneys removed 24 h post-metal
Marks after values point to notes of the source that are not given here.
QUANTITY_KIND: Renal Conc.

// worked examples, Renal Conc. included
Query: Renal Conc.; subject: COc1ccc(C2=N[C@@](C)(C(=O)O)CS2)c(O)c1 [compound 7, (S)-4'-(CH3O)-DADFT]
8 ± 2 ^b µg g^−1

What would you report for COCCOCCOCCOc1ccc(C2=N[C@@](C)(C(=O)O)CS2)c(O)c1 [compound 9] ?
29 ± 6 ^b µg g^−1

What would you report for COc1ccc(C2=N[C@@H](C(=O)O)CS2)c(O)c1 [compound 3] ?
34 ± 5 ^b µg g^−1

# evaluate next
Query: Renal Conc.; subject: COCCOCCOCCOc1cccc(C2=N[C@@](C)(C(=O)O)CS2)c1O [compound 10]
13 ± 6 ^b µg g^−1

====

Hi there, I'd appreciate the recorded Reduction (%) of renal uranium vs control for every entry that follows.
Assay type: in vivo, rat
Details: single dose 300 µmol kg^−1 PO; 24 h post-metal
Give bare numbers, in %.

// worked examples, Reduction (%) of renal uranium vs control included
Query: Reduction (%) of renal uranium vs control; subject: COCCOCCOCCOc1cccc(C2=N[C@@](C)(C(=O)O)CS2)c1O [compound 10]
62

What would you report for COCCOCCOCCOc1ccc(C2=N[C@@](C)(C(=O)O)CS2)c(O)c1 [compound 9] ?
57

What would you report for COc1ccc(C2=N[C@@](C)(C(=O)O)CS2)c(O)c1 [compound 7, (S)-4'-(CH3O)-DADFT] ?
94

For the 2 compounds below, give their Reduction (%) of renal uranium vs control values.
1. COc1ccc(C2=N[C@@H](C(=O)O)CS2)c(O)c1 [compound 3]
2. O=C(O)CN(CCN(CC(=O)O)CC(=O)O)CCN(CC(=O)O)CC(=O)O [DTPA, Diethylenetriaminepentaacetic acid, reference compound]

1. 73
2. 36

====

Type: in vivo, rat
Details: single dose 150 µmol kg^−1 SC; tissue 24 h post-metal
Marks after values point to notes of the source that are not given here.
QUANTITY_KIND: Kidney U Conc.

For the 3 molecules below, give their Kidney U Conc. values.
1. O=C(O)CN(CCN(CC(=O)O)CC(=O)O)CCN(CC(=O)O)CC(=O)O [DTPA, Diethylenetriaminepentaacetic acid, reference compound]
2. COc1ccc(C2=N[C@@H](C(=O)O)CS2)c(O)c1
3. COCCOCCOCCOc1cccc(C2=N[C@@](C)(C(=O)O)CS2)c1O

1: 47 ± 9 ^b µg g^−1; 2: 51 ± 22 ^b µg g^−1; 3: 33 ± 8 ^b µg g^−1

For the 2 molecules below, give their Kidney U Conc. values.
1. COCCOCCOCCOc1ccc(C2=N[C@@](C)(C(=O)O)CS2)c(O)c1
2. COc1ccc(C2=N[C@@](C)(C(=O)O)CS2)c(O)c1 [compound 7, (S)-4'-(CH3O)-DADFT]

37 ± 16 ^b µg g^−1
19 ± 4 ^b µg g^−1

====

Hi there, I'd appreciate the recorded Liver U Conc. for every entry that follows.
Type: in vivo, rat
Conditions: single dose 300 µmol kg^−1 PO; tissue 24 h post-metal
Marks after values point to notes of the source that are not given here.

Query: Liver U Conc.; subject: COc1ccc(C2=N[C@@H](C(=O)O)CS2)c(O)c1
2.5 ± 0.8 ^c µg g^−1

For the 4 compounds below, give their Liver U Conc. values.
1. COCCOCCOCCOc1cccc(C2=N[C@@](C)(C(=O)O)CS2)c1O
2. COc1ccc(C2=N[C@@](C)(C(=O)O)CS2)c(O)c1 [compound 7, (S)-4'-(CH3O)-DADFT]
3. COCCOCCOCCOc1ccc(C2=N[C@@](C)(C(=O)O)CS2)c(O)c1
4. O=C(O)CN(CCN(CC(=O)O)CC(=O)O)CCN(CC(=O)O)CC(=O)O [DTPA, Diethylenetriaminepentaacetic acid, reference compound]

0.7 ± 0.4 ^c µg g^−1
5.1 ± 1.7 ^c µg g^−1
0.6 ± 0.2 ^c µg g^−1
0.2 ± 0.0 µg/g
